Origin of the recorded values: PubChem BioAssay

- Assay Protocol: human hepatoma cell viability loss – ATP luminescence, cytotoxicity control for P. falciparum antimalarial project, primary screen (AID 2303)
- Study Conditions: HepG2 viability, 24-48 h, at 10 µM, stronger effect = higher value
Recorded inhibition determines the label; the label ranges are Low (below 10%), Medium (10% to below 20%), High (20% or more)

Would you please look over these solved cases?
Q: Hi there! Could you help me figure out the category for `Oc1cccc(-c2nc(-c3ccccc3)c(-c3ccc(Oc4ccc(-c5[nH]c(-c6cccc(O)c6)nc5-c5ccccc5)cc4)cc3)[nH]2)c1` please?
Result: Low

Q: Note: place this compound into its band. Item: `CN1CCCc2ccc(NC(=O)Nc3ccc(-c4ccccc4)cc3)cc2C1`
Result: High

New cases:
Q: Hello team, could you let me know which band the following compound falls into: `CCC(=O)Nc1cc(=O)[nH]c2nc(-c3ccc(Cl)cc3)nn12`
Result: Low

Q: Consider `O=C(NCCCCN1CCC(C(c2ccccc2)c2ccccc2)CC1)c1ccc(NC(=O)c2ccc(Cl)cc2)cc1` . To which inhibition class does it belong?
Result: Medium

Q: Class? Entry: `CN(C)CCN(C)Cc1ccc(-c2cccc(-c3nc4ccccc4[nH]3)c2)cc1`
Result: High

Q: Into which bin does this compound go? CC(C)Oc1ccccc1-c1csc(C(=O)NCC2CCN(Cc3ccc(C(C)(C)C)cc3)C2)c1 (configuration not stated)
Result: High

Q: Please let me know in which category the item `Cc1ccc(NC(=O)Nc2ccc(I)c(OCCN(C)C)c2)cc1Cl` belongs.
Result: Medium

Q: Sort `Cn1cc(CCNc2ccnc(NCCc3coc4ccccc34)n2)c2ccccc21` into one of the categories.
Result: High

Q: Quick check: band for `O=C(/C=C/c1ccc(Cl)c(Cl)c1)NCCCCCN1CCC(NC(=O)c2ccc(F)cc2F)CC1`
Result: Medium

Q: Which bin, given its inhibition, does O=C1COc2ccc(CNC3CCC(O)(CCc4ccnc5cc6c(cc45)OCCO6)CC3)nc2N1 (configuration not stated) occupy?
Result: Low

Q: Looking at `c1cn(CCCNc2ncc(-c3ccsc3)c(-c3nccs3)n2)cn1` , which class would you pick?
Result: Low

Q: Form field 'band' for `Cc1onc(-c2ccccc2)c1C(=O)Nc1nc(-c2ccccn2)nc2ccsc12`
Result: High

Q: Quick check: band for `COc1ccc(-c2nc(-c3ccc([N+](=O)[O-])cc3)no2)cc1OC`
Result: Medium

Q: # bin label for `CCc1ccc(NC(=O)c2cccc(CN3CCCN(CC4CCCCC4)CC3)c2)cc1`
Result: High

Q: Field: class (inhibition) — entry: `CN1CCC(N2CCN(Cc3ccc(-c4cccc(-c5nc6ccccc6[nH]5)c4)cc3)CC2)CC1`
Result: High

Q: Band for CC1(C)N=C(N)N=C(N)C1c1ccc(Cl)cc1 (configuration not stated) ?
Result: Medium

Q: Which inhibition band matches `Cc1ncccc1-c1cccc2c(NC(=O)Nc3ccc4nccc(N5CCN(C)CC5)c4c3)cccc12` ?
Result: Medium
